Target: T1, full-length recombinant human PAD4 (human, UniProt Q9UM07 1-663)
T1 construct: Full-length recombinant; also called peptidylarginine deiminase 4
T1 sequence (Q9UM07 whole entry): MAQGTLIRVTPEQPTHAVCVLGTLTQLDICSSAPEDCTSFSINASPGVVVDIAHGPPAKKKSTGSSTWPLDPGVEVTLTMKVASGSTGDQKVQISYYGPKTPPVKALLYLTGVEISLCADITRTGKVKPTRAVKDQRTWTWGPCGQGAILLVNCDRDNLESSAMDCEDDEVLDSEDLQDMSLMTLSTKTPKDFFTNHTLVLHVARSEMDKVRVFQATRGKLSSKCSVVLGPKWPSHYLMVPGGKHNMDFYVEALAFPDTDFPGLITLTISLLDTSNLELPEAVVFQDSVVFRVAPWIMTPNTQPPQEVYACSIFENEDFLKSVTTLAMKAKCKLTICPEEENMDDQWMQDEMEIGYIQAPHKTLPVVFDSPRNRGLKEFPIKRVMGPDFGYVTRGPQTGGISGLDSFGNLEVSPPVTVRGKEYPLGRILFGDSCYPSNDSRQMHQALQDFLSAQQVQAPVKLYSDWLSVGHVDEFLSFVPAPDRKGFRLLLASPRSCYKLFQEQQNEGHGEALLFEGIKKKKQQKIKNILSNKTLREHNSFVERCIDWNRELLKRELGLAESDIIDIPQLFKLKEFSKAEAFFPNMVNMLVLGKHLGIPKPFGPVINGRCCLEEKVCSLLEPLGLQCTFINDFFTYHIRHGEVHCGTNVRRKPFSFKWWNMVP
Assay: ELISA, immobilized human PAD4
O.D. 490/630 at 0.25 µg/mL values by entry
attribute.measured: O.D. 490/630 at 0.25 µg/mL

{"binder": "humanized anti-PAD4 antibody derived from G8, VH H4.15 / VL L4.17 (antibody, human IgG1, kappa, V domains shown, IgG1 kappa; also called G8 H4.15/L4.17) VH: EVQLLESGGGLVQPGGSLRLSCAASGFTFSTYAMGWVRQAPGKGLEFVSAIRNDGSWTGYGAAVKGRFTISRDNSKNTVYLQMNSLRAEDTAVYYCAKYTGSSGGSIGAWGQGTLVTVSS VL: SYELTQPPSVSVSPGQTARITCSGGNRNYYYGWYQQKPGQAPVTVIYANDKRPSGIPERFSGSTSGNTTTLTISGVQAEDEADYYCGTADTGKYVFGGGTKLTVLG", "result.number": 1.81}
{"binder": "humanized anti-PAD4 antibody derived from H7, VH H4.15 / VL L4.00 (antibody, IgG1, V domains shown, IgG1 kappa; also called H7 H4.15/L4.00) VH: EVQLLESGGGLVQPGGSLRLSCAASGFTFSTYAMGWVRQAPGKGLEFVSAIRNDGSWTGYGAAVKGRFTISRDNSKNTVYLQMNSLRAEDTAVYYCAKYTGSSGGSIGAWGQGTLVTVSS VL: SYELTQPPSVSVSPGQTARITCSGGSGRYYYGWYQQKPGQAPVLVIYSSTHRPSGIPERFSGSSSGTTVTLTISGVQAEDEADYYCGTADSSSYVFGGGTKLTVLG", "result.number": 1.9}
{"binder": "humanized anti-PAD4 antibody derived from H7, VH H4.32 / VL L4.15 (antibody, IgG1, V domains shown, IgG1 kappa; also called H7 H4.32/L4.15) VH: EVQLLESGGGLVQPGGSLRLSCAASGFTFSTYAMGWVRQAPGKGLEFVAAIRNDGSWTGYGAAVKGRVTISRDNSKNTVYLQMNSLRAEDTAVYYCAKYTGSSGGSIGAWGQGTLVTVSS VL: SYELTQPPSVSVSPGQTARITCSGGSGRYYYGWYQQKPGQAPVTVIYSSTHRPSGIPERFSGSNSGNTTTLTISGVQAEDEADYYCGTADSSSYVFGGGTKLTVLG", "result.number": 1.84}
{"binder": "humanized anti-PAD4 antibody derived from H7, VH H4.32 / VL L4.06 (antibody, IgG1, V domains shown, IgG1 kappa; also called H7 H4.32/L4.06) VH: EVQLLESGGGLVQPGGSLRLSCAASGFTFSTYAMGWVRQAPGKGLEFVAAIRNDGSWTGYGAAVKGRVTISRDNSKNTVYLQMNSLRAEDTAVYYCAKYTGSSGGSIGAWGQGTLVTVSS VL: SYELTQPPSVSVSPGQTARITCSGGSGRYYYGWYQQKPGQAPVTVIYSSTHRPSGIPERFSGSYSGNTTTLTISGVQAEDEADYYCGTADSSSYVFGGGTKLTVLG", "result.number": 1.86}
{"binder": "humanized anti-PAD4 antibody derived from G8, VH H4.32 / VL L4.06 (antibody, IgG1, V domains shown, IgG1 kappa; also called G8 H4.32/L4.06) VH: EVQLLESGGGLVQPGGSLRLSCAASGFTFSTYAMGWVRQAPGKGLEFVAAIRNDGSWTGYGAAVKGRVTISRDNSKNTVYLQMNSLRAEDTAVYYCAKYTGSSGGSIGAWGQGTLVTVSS VL: SYELTQPPSVSVSPGQTARITCSGGNRNYYYGWYQQKPGQAPVTVIYANDKRPSGIPERFSGSYSGNTTTLTISGVQAEDEADYYCGTADTGKYVFGGGTKLTVLG", "result.number": 1.85}
